- target_of_assay: Human HDAC11 (Homo sapiens)
- Construct: GST (N); purchased BioMol SE-560; host or cells: baculovirus expression system
- Sequence (Q96DB2 whole entry): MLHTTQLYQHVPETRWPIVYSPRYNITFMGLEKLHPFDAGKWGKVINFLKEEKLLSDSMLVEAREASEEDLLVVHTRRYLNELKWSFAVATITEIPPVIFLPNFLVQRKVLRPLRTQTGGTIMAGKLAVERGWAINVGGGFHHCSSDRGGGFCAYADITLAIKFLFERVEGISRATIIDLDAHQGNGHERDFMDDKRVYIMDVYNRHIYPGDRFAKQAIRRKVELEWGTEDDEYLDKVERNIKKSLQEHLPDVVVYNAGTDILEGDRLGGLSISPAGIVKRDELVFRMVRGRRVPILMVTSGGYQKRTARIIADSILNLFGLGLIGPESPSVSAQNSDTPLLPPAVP
- run_description: In vitro HDAC11 inhibition, fluorogenic peptide substrate
- Assay type: biochemical
- experimental_context: read-out: IC50 (μM) HDAC-11
# if measured IC50 < 1 µM: Yes  # else: No

Example cases with answers are listed next.
A record lists "O=C(CCCCCCNc1c2c(nc3ncccc13)CCCC2)NO" . Is its IC50 below 1 µM? Yes

A record lists "O=C(CCCCCCNc1c2c(nc3cnccc13)CCCC2)NO" . Is its IC50 below 1 µM? Yes

A record lists "O=C(CCCCCCNc1c2c(nc3ccccc13)CCCC2)NO" . Is its IC50 below 1 µM? Yes

A record lists "O=C(CCCCCNc1c2c(nc3ccccc13)CCCC2)NO" . Is its IC50 below 1 µM? No

A record lists "O=C(CCCCCCNc1c2c(nc3ccccc13)CCC2)NO" . Is its IC50 below 1 µM? Yes

Continuing:
A record lists "O=C(CCCCCCNC(=O)c1c2c(nc3ccccc13)CCCC2)NO" . Is its IC50 below 1 µM? No

A record lists "COc1cccc2c(NCCCCCCC(=O)NO)c3c(nc12)CCCC3" . Is its IC50 below 1 µM? No

A record lists "O=C(CCCCCCNc1c2c(nc3ccccc13)CCCCC2)NO" . Is its IC50 below 1 µM? No

A record lists "O=C(CCCCCNC(=O)c1c2c(nc3ccccc13)CCCC2)NO" . Is its IC50 below 1 µM? No

Taken from patent US20160122340A1.
